assay-explanation: Inhibition of PBP2 in penicillin-resistant Enterococcus faecium D63r membranes assessed as inhibition of fluorescent ampicillin binding after 20 mins at 37 degC
Below: a set of entries, each annotated with reported IC50.
# unit: µg/mL | format: bare number

* Nc1nc(/C(=N/O)C(=O)N[C@@H]2C(=O)N3C(C(=O)O)=C(/C=C4\CCN([C@@H]5CCNC5)C4=O)CS[C@H]23)ns1 [CEFTOBIPROLE] | 0.2
* CO/N=C(\C(=O)N[C@@H]1C(=O)N2C(C(=O)[O-])=C(C[N+]3(C)CCCC3)CS[C@H]12)c1csc(N)n1 | 0.6
* CC(C)(O/N=C(\C(=O)N[C@@H]1C(=O)N2C(C(=O)[O-])=C(C[n+]3ccccc3)CS[C@H]12)c1csc(N)n1)C(=O)O [CEFTAZIDIME] | 0.5

Then there is this compound:
Qu. Find the measured IC50 of CC1(C)S[C@@H]2[C@H](NC(=O)Cc3ccccc3)C(=O)N2[C@H]1C(=O)O [PENICILLIN G] and report it.
Ans. 0.06
